procedure-details: Selectivity index, ratio of IC50 for AChE (unknown origin) to IC50 for equine serum BChE
// label = label 1 if Ratio IC50 is not less than 0.8, otherwise label 0

compound: CN1CC[C@@H](C(=O)N2C/C(=C\c3ccc(Cl)cc3)C(=O)[C@@]3(C2)[C@H](c2ccc(Cl)cc2)CN(C)[C@]32C(=O)Nc3ccccc32)[C@@]12C(=O)Nc1ccccc12 (racemic)
assigned-category: label 0

compound: C=CC(=O)N1C/C(=C\c2ccc(Cl)cc2)C(=O)[C@@]2(C1)[C@H](c1ccc(Cl)cc1)CN(C)[C@]21C(=O)Nc2ccccc21 (racemic)
assigned-category: label 1

compound: CN1CC[C@@H](C(=O)N2C/C(=C\c3ccccc3)C(=O)[C@@]3(C2)[C@H](c2ccccc2)CN(C)[C@]32C(=O)Nc3ccccc32)[C@@]12C(=O)Nc1ccccc12 (racemic)
assigned-category: label 0

compound: Cc1ccc(/C=C2\CN(C(=O)[C@@H]3CCN(C)[C@]34C(=O)Nc3ccccc34)C[C@]3(C2=O)[C@H](c2ccc(C)cc2)CN(C)[C@]32C(=O)Nc3ccccc32)cc1 (racemic)
assigned-category: label 0

compound: C=CC(=O)N1C/C(=C\c2ccc(F)cc2)C(=O)[C@@]2(C1)[C@H](c1ccc(F)cc1)CN(C)[C@]21C(=O)Nc2ccccc21 (racemic)
assigned-category: label 1

compound: CN1CC[C@@H](C(=O)N2C/C(=C\c3ccccc3Cl)C(=O)[C@@]3(C2)[C@H](c2ccccc2Cl)CN(C)[C@]32C(=O)Nc3ccccc32)[C@@]12C(=O)Nc1ccccc12 (racemic)
assigned-category: label 0

compound: CN1CC[C@@H](C(=O)N2C/C(=C\c3ccccc3F)C(=O)[C@@]3(C2)[C@H](c2ccccc2F)CN(C)[C@]32C(=O)Nc3ccccc32)[C@@]12C(=O)Nc1ccccc12 (racemic)
assigned-category: label 1

compound: C=CC(=O)N1C/C(=C\c2cccc([N+](=O)[O-])c2)C(=O)[C@@]2(C1)[C@H](c1cccc([N+](=O)[O-])c1)CN(C)[C@]21C(=O)Nc2ccccc21 (racemic)
assigned-category: label 0

compound: C=CC(=O)N1C/C(=C\c2cccc3ccccc23)C(=O)[C@@]2(C1)[C@H](c1cccc3ccccc13)CN(C)[C@]21C(=O)Nc2ccccc21 (racemic)
assigned-category: label 1

compound: Cc1ccccc1/C=C1\CN(C(=O)[C@@H]2CCN(C)[C@]23C(=O)Nc2ccccc23)C[C@]2(C1=O)[C@H](c1ccccc1C)CN(C)[C@]21C(=O)Nc2ccccc21 (racemic)
assigned-category: label 0
